B1: PhoQ; a variant is named by its letters at X, in order, P23837 (parent)
chain: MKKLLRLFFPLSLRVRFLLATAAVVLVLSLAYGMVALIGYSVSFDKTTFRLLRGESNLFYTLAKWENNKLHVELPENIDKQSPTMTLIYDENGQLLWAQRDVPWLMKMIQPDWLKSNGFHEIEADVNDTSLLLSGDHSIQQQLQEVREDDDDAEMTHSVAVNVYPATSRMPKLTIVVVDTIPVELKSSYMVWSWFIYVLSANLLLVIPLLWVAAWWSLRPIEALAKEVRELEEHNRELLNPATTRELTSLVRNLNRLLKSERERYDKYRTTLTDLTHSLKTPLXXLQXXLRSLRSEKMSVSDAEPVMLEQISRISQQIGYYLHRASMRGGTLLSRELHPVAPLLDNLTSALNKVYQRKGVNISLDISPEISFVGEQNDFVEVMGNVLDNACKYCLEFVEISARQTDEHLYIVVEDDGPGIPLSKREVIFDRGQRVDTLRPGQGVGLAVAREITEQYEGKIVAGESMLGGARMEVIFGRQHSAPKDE

Variants of: B1
Experiment: enrichment ratio after two sorts for PhoP signalling (ratio (wild type AVST 3.29)); higher = more functional
Conditions: with PhoP (E. coli)
In all, about 140,000 sequences were measured (“enrichment ratio after two sorts for PhoP signalling”: median about 0, highest 2% from about 11 on). The sample as a whole holds a higher share of the highest values than the screen did.
Catalogue of enrichment ratio readings, one per entry.

Some solved cases for reference:
Query: Provide enrichment ratio value for the following variant: `WQAG`
Reply: ≤ 0.25

Query: Provide enrichment ratio value for the following variant: `ACIM`
Reply: 30.7

Query: Provide enrichment ratio value for the following variant: `SPGL`
Reply: ≤ 0.25

Query: Provide enrichment ratio value for the following variant: `SFNA`
Reply: ≤ 0.25

Query: Provide enrichment ratio value for the following variant: `IENI`
Reply: ≤ 0.25

Query: Provide enrichment ratio value for the following variant: `ITLM`
Reply: 8.61

Query: Provide enrichment ratio value for the following variant: `TVSM`
Reply: 37.3

Query: Provide enrichment ratio value for the following variant: `SALM`
Reply: 12.7

Query: Provide enrichment ratio value for the following variant: `MSQP`
Reply: ≤ 0.25

Query: Provide enrichment ratio value for the following variant: `SPSM`
Reply: ≤ 0.25

***
Query: Provide enrichment ratio value for the following variant: `KQAG`
Reply: ≤ 0.25

Query: Provide enrichment ratio value for the following variant: `KQSM`
Reply: ≤ 0.25

Query: Provide enrichment ratio value for the following variant: `SSNL`
Reply: 3.91

Query: Provide enrichment ratio value for the following variant: `EQRH`
Reply: ≤ 0.25

Query: Provide enrichment ratio value for the following variant: `KQLM`
Reply: ≤ 0.25

Query: Provide enrichment ratio value for the following variant: `PFFR`
Reply: ≤ 0.25

Query: Provide enrichment ratio value for the following variant: `TQAG`
Reply: 28.2

Query: Provide enrichment ratio value for the following variant: `WNPE`
Reply: ≤ 0.25

Query: Provide enrichment ratio value for the following variant: `RFWY`
Reply: ≤ 0.25
